Hello, the source for this data is patent EP0600782A1, in case you need it.

Each entry below carries its recorded MIC.
System: Candida albicans A9540
Test: In vitro antifungal activity (MIC), agar dilution on yeast morphology agar
Type: cell-based
Details: YMA, 0.06M phosphate (pH 7.0), 28°C, 40 hours, read-out: MIC Ca-4

Cc1cc2c(c(O)c1C(=O)NCC(=O)O)-c1c(cc3c(c1O)C(=O)c1cccc(O)c1C3=O)[C@H](O)[C@H]2O[C@@H]1O[C@H](C)[C@H](O)[C@H](O[C@@H]2OC[C@@H](O)[C@H](O)[C@H]2O)[C@H]1O ... 6.3 µg/mL

In plain terms, CNC1C(C)OC(OC2c3cc(C)c(C(=O)NC(C)C(=O)O)c(O)c3-c3c(cc4c(c3O)C(=O)c3cc(O)cc(O)c3C4=O)C2O)C(O)C1OC1OCC(O)C(O)C1O (centres unmarked) has a documented MIC of 6.3 µg/mL

----------
Assay: Acute toxicity in mice after a single intravenous dose
Format: in vivo
Details: mouse, in vivo, read-out: LD50
MEASURED_QUANTITY: LD50
Answer shape: numeric part, then the unit.

LD50 recorded for this molecule, C[C@@H]1[C@H](O)[C@@H](C)/C=C/C=C/C=C/C=C/C=C/C=C/C=C/[C@H](O[C@@H]2O[C@H](C)[C@@H](O)[C@H](N)[C@@H]2O)C[C@@H]2O[C@](O)(C[C@@H](O)C[C@@H](O)[C@H](O)CC[C@@H](O)C[C@@H](O)CC(=O)O[C@H]1C)C[C@H](O)[C@H]2C(=O)O [Amphotericin B, reference compound] , is 4.5 mg/kg
